This listing pairs binders with measured Internalization ratio (%), OVCAR3, 4 h.
Molecular target: human FOLR1 on cells (Hela, RPTEC/TERT1, OVCAR3, OV90, IGROV-1, JEG-3, KB, NCI-H441) (human, UniProt P15328 25-234)
Sequence (P15328 25-234): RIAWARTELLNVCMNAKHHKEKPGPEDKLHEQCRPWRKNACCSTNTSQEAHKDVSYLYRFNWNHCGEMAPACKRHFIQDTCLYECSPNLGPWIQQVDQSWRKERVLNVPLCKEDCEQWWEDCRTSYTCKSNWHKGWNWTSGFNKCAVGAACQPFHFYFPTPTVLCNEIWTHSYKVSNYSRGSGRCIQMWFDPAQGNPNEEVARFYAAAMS
Experiment: cell-based or functional assay
Express it in %; write the number only.

Solved cases below.
binder="F131-ADC (antibody F131 conjugated to mc-VC-PAB-MMAE) (antibody, V domains shown, mc-VC-PAB-MMAE on cysteine thiols after TCEP reduction (positions not stated; DAR within 3~4), Antibody-drug conjugate; also called F131 immunoconjugate) VH: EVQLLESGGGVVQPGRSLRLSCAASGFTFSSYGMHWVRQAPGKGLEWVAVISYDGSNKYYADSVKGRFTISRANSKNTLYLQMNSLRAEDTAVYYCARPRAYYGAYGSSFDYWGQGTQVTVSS VL: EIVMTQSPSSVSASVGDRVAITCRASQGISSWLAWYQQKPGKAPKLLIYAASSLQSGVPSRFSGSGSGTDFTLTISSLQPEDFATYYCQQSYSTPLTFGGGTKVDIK" observation_type="Internalization ratio (%), OVCAR3, 4 h" value=35.2
binder="F26-ADC (antibody F26 conjugated to mc-VC-PAB-MMAE) (antibody, V domains shown, mc-VC-PAB-MMAE on cysteine thiols after TCEP reduction (positions not stated; DAR within 3~4), Antibody-drug conjugate; also called F26 immunoconjugate) VH: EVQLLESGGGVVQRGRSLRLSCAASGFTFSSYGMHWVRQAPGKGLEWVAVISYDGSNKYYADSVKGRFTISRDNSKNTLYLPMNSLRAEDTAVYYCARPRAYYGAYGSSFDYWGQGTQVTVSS VL: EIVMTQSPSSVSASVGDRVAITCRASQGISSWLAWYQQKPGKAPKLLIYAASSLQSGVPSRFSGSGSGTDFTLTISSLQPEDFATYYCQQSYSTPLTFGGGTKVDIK" observation_type="Internalization ratio (%), OVCAR3, 4 h" value=38.3
binder="F8-ADC (antibody F8 conjugated to mc-VC-PAB-MMAE) (antibody, V domains shown, mc-VC-PAB-MMAE on cysteine thiols after TCEP reduction (positions not stated; DAR within 3~4), Antibody-drug conjugate; also called F8 immunoconjugate) VH: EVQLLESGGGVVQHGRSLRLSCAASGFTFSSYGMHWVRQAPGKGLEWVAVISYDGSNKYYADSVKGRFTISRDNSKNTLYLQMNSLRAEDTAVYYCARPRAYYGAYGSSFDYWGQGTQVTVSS VL: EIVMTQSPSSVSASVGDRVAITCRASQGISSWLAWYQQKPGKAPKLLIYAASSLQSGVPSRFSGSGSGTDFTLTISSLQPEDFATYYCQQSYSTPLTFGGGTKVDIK" observation_type="Internalization ratio (%), OVCAR3, 4 h" value=34.5

FR107-ADC (reference antibody mirvetuximab huFR107 conjugated to mc-VC-PAB-MMAE) (antibody, V domains shown, mc-VC-PAB-MMAE on cysteine thiols after TCEP reduction (positions not stated; DAR within 3~4), Control conjugate) VH: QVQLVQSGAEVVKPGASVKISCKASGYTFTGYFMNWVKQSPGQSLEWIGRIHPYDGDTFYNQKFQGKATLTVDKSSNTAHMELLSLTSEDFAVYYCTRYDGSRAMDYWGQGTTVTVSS VL: DIVLTQSPLSLAVSLGQPAIISCKASQSVSFAGTSLMHWYHQKPGQQPRLLIYRASNLEAGVPDRFSGSGSKTDFTLTISPVEAEDAATYYCQQSREYPYTFGGGTKLEIK yielded Internalization ratio (%), OVCAR3, 4 h of 26.3
